experiment: physchem; type: physicochemical; conditions: peanut oil, organic solvent or mixture, solubility in a triglyceride lipid such as peanut oil
Where a name gives a salt, the structure may show the parent alone.
MEASUREMENT_NAME: solubility

*Q* Need solubility, item CCCCN(CCCC)CCC(O)c1cc2c(Cl)cc(Cl)cc2c2cc(C(F)(F)F)ccc12 (stereo not shown) [halofantrine hydrochloride]
*A* < 1000 µg/mL

====

experiment: physchem; format: physicochemical; settings: triglycerides, organic solvent or mixture, solubility in triglycerides
MEASUREMENT_NAME: solubility

*Q* Need solubility, item CCCCN(CCCC)CCC(O)c1cc2c(Cl)cc(Cl)cc2c2cc(C(F)(F)F)ccc12 (stereo not shown) [crystalline halofantrine free base]
*A* > 80 mg/mL

====

assay: physchem; type: physicochemical; conditions: aqueous solutions, solubility in aqueous solutions
Counter-ions that a name gives are not always drawn.
MEASUREMENT_NAME: solubility

*Q* Need solubility, item CCCCN(CCCC)CCC(O)c1cc2c(Cl)cc(Cl)cc2c2cc(C(F)(F)F)ccc12 (stereo not shown) [halofantrine hydrochloride]
*A* ~1 µg/mL

====

experiment: physchem; assay type: physicochemical; settings: peanut oil, organic solvent or mixture, miscible/soluble with peanut oil
MEASUREMENT_NAME: solubility

*Q* Need solubility, item CCCCN(CCCC)CCC(O)c1cc2c(Cl)cc(Cl)cc2c2cc(C(F)(F)F)ccc12 (stereo not shown) [amorphous halofantrine free base]
*A* > 400 mg/mL
